- Test System: HLA-A*23:01
- Test Method Notes: IEDB peptide-MHC binding, purified MHC/competitive/radioactivity; filed as Kd, often an IC50 or EC50 that approximates it; bounds were set here for any values at or beyond the usual limits of such assays
- Recorded Conditions: source organism: Mammarenavirus juninense
pKd: −log10 of the molar value.
Measurement Name: pKd

Worked cases, answers included:
{"Chain": "YCNYTKFWY", "Measurement Name": "pKd", "Value Observed": "≤ 4.65"}
{"Chain": "DWVVERVRWL", "Measurement Name": "pKd", "Value Observed": "≤ 4.28"}

Input line: Give recorded pKd with HLA-A*23:01 for the following sequence: VGEEFFHQY
Output line: 6.60

====

- Test System: HLA-A*68:02
- Test Method Notes: IEDB peptide-MHC binding, purified MHC/competitive/fluorescence; filed as Kd, often an IC50 or EC50 that approximates it; bounds were set here for any values at or beyond the usual limits of such assays
- Recorded Conditions: source organism: Entamoeba histolytica HM-1:IMSS
Measurement Name: Kd

Input line: So what's the measured Kd for this one? KVSVGSYFC
Output line: ≥ 20 µM

====

- Test System: HLA-C*12:03
- Test Method Notes: IEDB peptide-MHC binding, purified MHC/direct/fluorescence; filed as Kd, often an IC50 or EC50 that approximates it; bounds were set here for any values at or beyond the usual limits of such assays
- Recorded Conditions: source organism: Giardia lamblia ATCC 50803
Measurement Name: pKd
Answers are plain numbers, as −log10 of the molar value.

Input line: Give recorded pKd with HLA-C*12:03 for the following sequence: YMRERFEPM
Output line: 7.42

====

- Test System: HLA-A*03:01
- Test Method Notes: IEDB peptide-MHC binding, purified MHC/competitive/fluorescence; filed as Kd, often an IC50 or EC50 that approximates it; bounds were set here for any values at or beyond the usual limits of such assays
- Recorded Conditions: source organism: Vibrio parahaemolyticus AQ3810
Measurement Name: Kd

Input line: Give recorded Kd with HLA-A*03:01 for the following sequence: LLLKERGLH
Output line: ≥ 20 µM

====

- Test System: HLA-A*69:01
- Test Method Notes: IEDB peptide-MHC binding, purified MHC/competitive/fluorescence; filed as Kd, often an IC50 or EC50 that approximates it; bounds were set here for any values at or beyond the usual limits of such assays
- Recorded Conditions: source organism: Homo sapiens
pKd: −log10 of the molar value.
Hi there, I'd appreciate the recorded pKd for every entry that follows.

Worked cases, answers included:
{"Chain": "YQGSYGFRL", "pKd": "≤ 4.70"}
{"Chain": "LMQCWQLLA", "pKd": "≤ 4.70"}

Next up:
Input line: Give recorded pKd with HLA-A*69:01 for the following sequence: WMFRIRIIL
Output line: ≤ 4.70

====

- Test System: HLA-B*27:03
- Test Method Notes: IEDB peptide-MHC binding, purified MHC/competitive/fluorescence; filed as Kd, often an IC50 or EC50 that approximates it; bounds were set here for any values at or beyond the usual limits of such assays
- Recorded Conditions: source organism: Rickettsia sibirica 246
Measurement Name: Kd

Input line: So what's the measured Kd for this one? AMYDPQTYY
Output line: ≥ 20 µM

====

- Test System: HLA-B*45:06
- Test Method Notes: IEDB peptide-MHC binding, purified MHC/competitive/fluorescence; filed as Kd, often an IC50 or EC50 that approximates it; bounds were set here for any values at or beyond the usual limits of such assays
- Recorded Conditions: source organism: Homo sapiens
Measurement Name: Kd

{"Chain": "STMRRMALR", "Kd": "≥ 5 µM"}

Next up:
Input line: So what's the measured Kd for this one? FLNPVIYTF
Output line: ≥ 5 µM

Source: the Immune Epitope Database (IEDB)
